Test context: in ethyl acetate, 293.15 K
Metric: solubility (mole fraction)

A = CCOC(=O)[C@H](CCc1ccccc1)N[C@@H](C)C(=O)N1CCC[C@H]1C(=O)O.O=C(O)/C=C\C(=O)O
B = CCOC(=O)[C@H](CCc1ccccc1)N[C@@H](C)C(=O)O
Which record shows the lower solubility (mole fraction): the first, A , or the second, B ? To answer, give the label that identifies your chosen option.
A
(A: 0.00379, B: 0.0104)

###

Test context: in acetonitrile, 308.15 K
Metric: solubility (mole fraction)

Note to self: solubility (mole fraction) recorded for "CCOC(=O)[C@H](CCc1ccccc1)N[C@@H](C)C(=O)O" was 0.00183

Note to self: solubility (mole fraction) recorded for "CCOC(=O)[C@H](CCc1ccccc1)N[C@@H](C)C(=O)N1CCC[C@H]1C(=O)O.O=C(O)/C=C\C(=O)O" was 0.00204

###

Test context: in ethanol, 283.15 K
Metric: solubility (mole fraction)

a = CCOC(=O)[C@H](CCc1ccccc1)N[C@@H](C)C(=O)O
b = CCOC(=O)[C@H](CCc1ccccc1)N[C@@H](C)C(=O)N1CCC[C@H]1C(=O)O.O=C(O)/C=C\C(=O)O
Which record shows the lower solubility (mole fraction): the first, a , or the second, b ? To answer, give the label that identifies your chosen option.
b
(b: 0.000998, a: 0.00294)

###

Test context: in acetonitrile, 278.15 K
Metric: solubility (mole fraction)

A = CCOC(=O)[C@H](CCc1ccccc1)N[C@@H](C)C(=O)O
B = CCOC(=O)[C@H](CCc1ccccc1)N[C@@H](C)C(=O)N1CCC[C@H]1C(=O)O.O=C(O)/C=C\C(=O)O
Between the two listed entries A and B , which has its solubility (mole fraction) at the higher number? To answer, give the label that identifies your chosen option.
B

###

Test context: in acetonitrile, 298.15 K
Metric: solubility (mole fraction)

Note to self: solubility (mole fraction) recorded for "CCOC(=O)[C@H](CCc1ccccc1)N[C@@H](C)C(=O)O" was 0.000907

Note to self: solubility (mole fraction) recorded for "CCOC(=O)[C@H](CCc1ccccc1)N[C@@H](C)C(=O)N1CCC[C@H]1C(=O)O.O=C(O)/C=C\C(=O)O" was 0.00117

###

Test context: in ethanol, 308.15 K
Metric: solubility (mole fraction)

Note to self: solubility (mole fraction) recorded for "CCOC(=O)[C@H](CCc1ccccc1)N[C@@H](C)C(=O)O" was 0.00436

Note to self: solubility (mole fraction) recorded for "CCOC(=O)[C@H](CCc1ccccc1)N[C@@H](C)C(=O)N1CCC[C@H]1C(=O)O.O=C(O)/C=C\C(=O)O" was 0.00366

###

Test context: in acetone, 308.15 K
Metric: solubility (mole fraction)

I = CCOC(=O)[C@H](CCc1ccccc1)N[C@@H](C)C(=O)N1CCC[C@H]1C(=O)O.O=C(O)/C=C\C(=O)O
II = CCOC(=O)[C@H](CCc1ccccc1)N[C@@H](C)C(=O)O
Which record shows the lower solubility (mole fraction): the first, I , or the second, II ? To answer, give the label that identifies your chosen option.
I

###

Test context: in ethyl acetate, 318.15 K
Metric: solubility (mole fraction)

1 = CCOC(=O)[C@H](CCc1ccccc1)N[C@@H](C)C(=O)O
2 = CCOC(=O)[C@H](CCc1ccccc1)N[C@@H](C)C(=O)N1CCC[C@H]1C(=O)O.O=C(O)/C=C\C(=O)O
Between the two listed entries 1 and 2 , which has its solubility (mole fraction) at the higher number? To answer, give the label that identifies your chosen option.
1

###

Test context: in acetone, 283.15 K
Metric: solubility (mole fraction)

P = CCOC(=O)[C@H](CCc1ccccc1)N[C@@H](C)C(=O)O
Q = CCOC(=O)[C@H](CCc1ccccc1)N[C@@H](C)C(=O)N1CCC[C@H]1C(=O)O.O=C(O)/C=C\C(=O)O
Between the two listed entries P and Q , which has its solubility (mole fraction) at the higher number? To answer, give the label that identifies your chosen option.
P
(P: 0.00468, Q: 0.00176)

###

Test context: in ethyl acetate, 313.15 K
Metric: solubility (mole fraction)

A = CCOC(=O)[C@H](CCc1ccccc1)N[C@@H](C)C(=O)O
B = CCOC(=O)[C@H](CCc1ccccc1)N[C@@H](C)C(=O)N1CCC[C@H]1C(=O)O.O=C(O)/C=C\C(=O)O
Between the two listed entries A and B , which has its solubility (mole fraction) at the higher number? To answer, give the label that identifies your chosen option.
A
(A: 0.0131, B: 0.00796)

###

Test context: in acetonitrile, 293.15 K
Metric: solubility (mole fraction)

P = CCOC(=O)[C@H](CCc1ccccc1)N[C@@H](C)C(=O)N1CCC[C@H]1C(=O)O.O=C(O)/C=C\C(=O)O
Q = CCOC(=O)[C@H](CCc1ccccc1)N[C@@H](C)C(=O)O
Between the two listed entries P and Q , which has its solubility (mole fraction) at the higher number? To answer, give the label that identifies your chosen option.
P
(P: 0.0009, Q: 0.000608)

###

Test context: in ethanol, 278.15 K
Metric: solubility (mole fraction)

a = CCOC(=O)[C@H](CCc1ccccc1)N[C@@H](C)C(=O)N1CCC[C@H]1C(=O)O.O=C(O)/C=C\C(=O)O
b = CCOC(=O)[C@H](CCc1ccccc1)N[C@@H](C)C(=O)O
Between the two listed entries a and b , which has its solubility (mole fraction) at the higher number? To answer, give the label that identifies your chosen option.
b

###

Test context: in acetone, 298.15 K
Metric: solubility (mole fraction)

1 = CCOC(=O)[C@H](CCc1ccccc1)N[C@@H](C)C(=O)O
2 = CCOC(=O)[C@H](CCc1ccccc1)N[C@@H](C)C(=O)N1CCC[C@H]1C(=O)O.O=C(O)/C=C\C(=O)O
Between the two listed entries 1 and 2 , which has its solubility (mole fraction) at the higher number? To answer, give the label that identifies your chosen option.
1
(1: 0.00627, 2: 0.00302)

###

Test context: in acetone, 318.15 K
Metric: solubility (mole fraction)

a = CCOC(=O)[C@H](CCc1ccccc1)N[C@@H](C)C(=O)O
b = CCOC(=O)[C@H](CCc1ccccc1)N[C@@H](C)C(=O)N1CCC[C@H]1C(=O)O.O=C(O)/C=C\C(=O)O
Which record shows the lower solubility (mole fraction): the first, a , or the second, b ? To answer, give the label that identifies your chosen option.
b
